biological target: human renal renin (Homo sapiens, UniProt P00797); construct: from tissue; host or cells: human kidney (read from the word 'renal'; no preparation is printed); experiment: Inhibition of human renal renin in vitro (angiotensin I formation by radioimmunoassay); type: biochemical; conditions: human renal renin, 37 degrees C, pH 6.0; read-out: IC50
Sequence (P00797 67-406): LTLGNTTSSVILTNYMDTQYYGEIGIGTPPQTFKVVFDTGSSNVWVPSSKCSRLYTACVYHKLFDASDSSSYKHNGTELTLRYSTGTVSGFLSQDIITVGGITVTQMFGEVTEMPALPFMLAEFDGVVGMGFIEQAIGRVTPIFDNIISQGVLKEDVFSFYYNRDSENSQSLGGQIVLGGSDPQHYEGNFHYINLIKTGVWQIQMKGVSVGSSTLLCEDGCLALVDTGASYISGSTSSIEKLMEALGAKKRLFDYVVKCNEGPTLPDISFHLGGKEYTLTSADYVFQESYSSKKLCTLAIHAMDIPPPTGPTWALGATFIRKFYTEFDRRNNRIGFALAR
measured_metric: IC50 (nM)

IC50 for human renal renin (Homo sapiens, UniProt P00797) with input `CCCCNC(=O)[C@@H](C[C@H](O)[C@H](CC1CCCCC1)NC(=O)[C@H](C)O[C@@H](Cc1ccccc1)C(=O)N1CCOCC1)C(C)C` equals 3.9

IC50 for human renal renin (Homo sapiens, UniProt P00797) with input `COCOC1CCN(C(=O)[C@H](Cc2ccccc2)O[C@@H](C)C(=O)N[C@@H](CC2CCCCC2)[C@@H](O)[C@@H](O)CC(C)C)CC1` equals 1.3

IC50 for human renal renin (Homo sapiens, UniProt P00797) with input `CCCC[C@H](O[C@@H](Cc1ccccc1)C(=O)N1CCC(OCOC)CC1)C(=O)N[C@@H](CC1CCCCC1)[C@@H](O)[C@@H](O)CN(C)OC` equals 2.7

IC50 for human renal renin (Homo sapiens, UniProt P00797) with input `CC(C)C[C@H](O)[C@H](O)[C@H](CC1CCCCC1)NC(=O)[C@H](C)O[C@@H](Cc1ccccc1)C(=O)N1CCCC1` equals 12

[A] CC(C)C[C@H](O)[C@H](O)[C@H](CC1CCCCC1)NC(=O)[C@H](C)O[C@@H](Cc1ccccc1)C(=O)N1CCCCC1
[B] CCCC[C@H](O[C@@H](Cc1ccccc1)C(=O)N1CCC(OCOC)CC1)C(=O)N[C@@H](CC1CCCCC1)[C@@H](O)CN(C(C)C)S(=O)(=O)NC
[C] CCCC[C@H](O[C@@H](Cc1ccccc1)C(=O)N1CCC(OCOC)CC1)C(=O)N[C@@H](CC1CCCCC1)[C@@H](O)C[C@H](NC(=O)OCCN(C)C)C(C)C
-- ask Hi! Can you put these in order of IC50, lowest number first? // format: requested-order list of labels
-- reply B, C, A

----------
molecular target: human renal renin (Homo sapiens); construct: from tissue; host or cells: human kidney (read from the word 'renal'; no preparation is printed); assay: Inhibition of human renal renin in vitro (angiotensin I formation by radioimmunoassay); assay type: biochemical
measured_metric: IC50 (nM)
Could you give me the number in nM? Just the number is fine.

IC50 for human renal renin (Homo sapiens) with input CCCC[C@H](N[C@@H](Cc1ccccc1)C(=O)N1CCC(OCOC)CC1)C(=O)N[C@@H](CC1CCCCC1)[C@@H](O)C[C@H](C(=O)NCCCn1ccnc1)C(C)C [Example 119] equals 3

----------
molecular target: human renal renin (Homo sapiens); construct: from tissue; host or cells: human kidney (read from the word 'renal'; no preparation is printed); experiment: Inhibition of human renal renin in vitro (angiotensin I formation by radioimmunoassay); type: biochemical; settings: human renal renin, 37 degrees C, pH 6.0; read-out: IC50
pIC50: −log10 of the molar value.
measured_metric: pIC50

Consider the reported pIC50 for these compounds:
Lab note: `CCCC[C@H](O[C@@H](Cc1ccccc1)C(=O)N1CCC(OCOC)CC1)C(=O)N[C@@H](CC1CCCCC1)[C@@H](O)C[C@H](C(=O)NCCC[N+](C)(C)[O-])C(C)C` gave pIC50 of 8.85

Lab note: `CCCC[C@H](O[C@@H](Cc1ccccc1)C(=O)N1CCC(OCOC)CC1)C(=O)N[C@@H](CC1CCCCC1)[C@@H](O)CN(C)S(=O)(=O)NC` gave pIC50 of 8.60

Lab note: `CCCC[C@H](N[C@@H](Cc1ccccc1)C(=O)N1CCOCC1)C(=O)N[C@@H](CC1CCCCC1)[C@@H](O)[C@@H](O)CC(C)C` gave pIC50 of 8.05

[a] CCCC[C@H](O[C@@H](Cc1ccccc1)C(=O)N1CCC(OCOC)CC1)C(=O)N[C@@H](CC1CCCCC1)[C@@H](O)[C@@H](O)CC(C)C
[b] CCCC[C@H](O[C@@H](Cc1ccccc1)C(=O)N1CCC(OCOC)CC1)C(=O)N[C@@H](CC1CCCCC1)[C@@H](O)C(F)(F)[C@H](O)C(C)C
[c] CCCC[C@H](N[C@@H](Cc1ccccc1)C(=O)N1CCC(OCOC)CC1)C(=O)N[C@@H](CC1CCCCC1)[C@H](O)CC(C(=O)N[C@H](C(=O)NCc1ccccn1)[C@@H](C)CC)C(C)C (stereo partly shown)
-- ask Hi! Can you put these in order of pIC50, lowest number first? // format: requested-order list of labels
-- reply b, c, a
(b: 8.34, c: 8.74, a: 8.96)

[A] CCCC[C@H](O[C@@H](Cc1ccccc1)C(=O)N1CCC(OCOC)CC1)C(=O)N[C@@H](CC1CCCCC1)[C@@H](O)[C@@H]1CN(CC)C(=O)O1
[B] CCCC[C@H](O[C@@H](Cc1ccccc1)C(=O)N1CCC(OCOC)CC1)C(=O)N[C@@H](CC1CCCCC1)[C@@H](O)C[C@H](NC(=O)OCCN1CCOCC1)C(C)C
-- ask Hey, between A and B which has a smaller measured pIC50? Please indicate the selected item by its label.
-- reply B
(B: 8.85, A: 9.06)

All values here come from patent US5268374A.
